- System: S. lactis
- Assay type: cell-based
- Protocol conditions: S. lactis (Gram-pos.); after three days; peptone-glucose agar; pH ~ 6.9-7.0
The following molecules are shown together with reported Minimal concentration causing complete inhibition of visible growth (MIC) values.
Report only the number, with the unit µg/mL understood.

{"Molecule": "CCC[CH2][Sn]([CH2]CCC)([CH2]CCC)[O]C(C)=O [Bu3 SnOAc, reference compound]", "Reading": 5}
{"Molecule": "CCC[CH2][Sn]([CH2]CCC)([CH2]CC[N+](C)(C)C)[CH2]CC[N+](C)(C)C.[I-].[I-] [Bu2 Sn[(CH2)3 NMe3 I]2]", "Reading": 300}
{"Molecule": "CCC[CH2][Sn]([CH2]CCC)([CH2]CCN(C)C)[CH2]CCN(C)C [Bu2 Sn[(CH2)3 NMe2]2]", "Reading": 100}

What value of measured Minimal concentration causing complete inhibition of visible growth (MIC) is listed for `CCC[CH2][Sn]([CH2]CCC)([CH2]CCC)[CH2]CCOC(C)=O` ?
100

Would you mind doing `CCC[CH2][Sn]([CH2]CCC)([CH2]CCC)[CH2]CC(N)=O` as well?
10
